This collection of values is drawn from patent US6713455B2.

System: E. faecalis ATCC29212
assay.readout: MIC (µg/mL)
Answers are plain numbers, in µg/mL.

Example results:
compound	measured.target	MIC (µg/mL)
CC[C@H]1OC(=O)[C@H](C)C(=O)[C@H](C)[C@@H](OC2O[C@H](C)C[C@H](N(C)C)[C@H]2O)[C@](C)(OC(=O)NC/C=C/c2cn(-c3cnccn3)cn2)C[C@@H](C)C(=O)C(C)C2CC(=O)O[C@@]21C (stereo partly shown)	E. faecalis ATCC29212	0.12
CC[C@H]1OC(=O)[C@H](C)C(=O)[C@H](C)[C@@H](OC2O[C@H](C)C[C@H](N(C)C)[C@H]2O)[C@](C)(OC(=O)NC/C=C/c2cncc3ccccc23)C[C@@H](C)C(=O)C(C)C2CC(=O)O[C@@]21C (stereo partly shown)	E. faecalis ATCC29212	0.12
CC[C@H]1OC(=O)[C@H](C)C(=O)[C@H](C)[C@@H](OC2O[C@H](C)C[C@H](N(C)C)[C@H]2O)[C@](C)(OC(=O)NC/C=C/c2cn(-c3ncccn3)cn2)C[C@@H](C)C(=O)C(C)C2CC(=O)O[C@@]21C (stereo partly shown)	E. faecalis ATCC29212	0.12

# next compound below
-- ask Which MIC is reported with E. faecalis ATCC29212 for this entry: CC[C@H]1OC(=O)[C@H](C)C(=O)[C@H](C)[C@@H](OC2O[C@H](C)C[C@H](N(C)C)[C@H]2O)[C@](C)(OC(=O)NC/C=C/c2ccc(-c3ncccn3)cc2)C[C@@H](C)C(=O)C(C)C2CC(=O)O[C@@]21C (stereo partly shown) ?
-- reply 0.12

----------
What MIC (μg/mL) E was measured for each of the following?
System: H. influenzae ATCC49247
Assay: MIC, microdilution broth method (NCCLS)
Format: cell-based
Conditions: 35° C., 16-20 hours
Numbers only, in µg/mL.

Study these solved cases before continuing.
molecule	measured.result
CCC1OC(=O)C(C)C(=O)C(C)C(OC2OC(C)CC(N(C)C)C2O)C(C)(OC(=O)NCC=Cc2ccccn2)CC(C)C(=O)C(C)C2CC(=O)OC12C (stereo not shown) [Compound 33]	8
CCC1OC(=O)C(C)C(=O)C(C)C(OC2OC(C)CC(N(C)C)C2O)C(C)(OC(=O)NCC=Cc2cncc(-c3ccccn3)c2)CC(C)C(=O)C(C)C2CC(=O)OC12C (stereo not shown) [Compound 11]	4
CCC1OC(=O)C(C)C(=O)C(C)C(OC2OC(C)CC(N(C)C)C2O)C(C)(OC(=O)NCC=Cc2ccnc3ccccc23)CC(C)C(=O)C(C)C2CC(=O)OC12C (stereo not shown) [Compound 39]	4

Would you kindly look at the next entry?
-- ask Which MIC (μg/mL) E value belongs to CCC1OC(=O)C(C)C(=O)C(C)C(OC2OC(C)CC(N(C)C)C2O)C(C)(OC(=O)NCC=Cc2cccc(-c3cccnc3)c2)CC(C)C(=O)C(C)C2CC(=O)OC12C (stereo not shown) [Compound 14] ?
-- reply 8

----------
Tested on: S. aureus ATCC29213
Test: MIC, microdilution broth method (NCCLS)
Type: cell-based
Details: 35° C., 16-20 hours
Answer each item with its documented MIC (μg/mL) B.
Numbers only, in µg/mL.

Check out these entries, answers already filled in.
compound	MIC (μg/mL) B / µg/mL
CCC1OC(=O)C(C)C(=O)C(C)C(OC2OC(C)CC(N(C)C)C2O)C(C)(OC(=O)NCc2ccc3ncccc3c2)CC(C)C(=O)C(C)C2CC(=O)OC12C (centres unmarked) [Compound 3]	1
CCC1OC(=O)C(C)C(=O)C(C)C(OC2OC(C)CC(N(C)C)C2O)C(C)(OC(=O)NCc2ccc(C=Cc3ccc4ccccc4n3)cc2)CC(C)C(=O)C(C)C2CC(=O)OC12C (centres unmarked) [Compound 36]	4
CCC1OC(=O)C(C)C(=O)C(C)C(OC2OC(C)CC(N(C)C)C2O)C(C)(OC(=O)NCC=Cc2cccc(-c3cccnc3)c2)CC(C)C(=O)C(C)C2CC(=O)OC12C (centres unmarked) [Compound 14]	2
CCC1OC(=O)C(C)C(=O)C(C)C(OC2OC(C)CC(N(C)C)C2O)C(C)(OC(=O)NCC=Cc2ccc3cccnc3c2)CC(C)C(=O)C(C)C2C(OC)C(=O)OC12C (centres unmarked) [Compound 10]	1
CCC1OC(=O)C(C)C(=O)C(C)C(OC2OC(C)CC(N(C)C)C2O)C(C)(OC(=O)NCc2ccc(-c3cncnc3)cc2)CC(C)C(=O)C(C)C2CC(=O)OC12C (centres unmarked) [Compound 2]	1
CCC1OC(=O)C(C)C(=O)C(C)C(OC2OC(C)CC(N(C)C)C2O)C(C)(OC(=O)NCC=Cc2cccnc2)CC(C)C(=O)C(C)C2CC(=O)OC12C (centres unmarked) [Compound 34]	0.5

For every item in the list below, what is its measured MIC (μg/mL) B?
1. CCC1OC(=O)C(C)C(=O)C(C)C(OC2OC(C)CC(N(C)C)C2O)C(C)(OC(=O)NCC=Cc2ccc(-c3ccccn3)cc2)CC(C)C(=O)C(C)C2CC(=O)OC12C (centres unmarked) [Compound 29]
2. CCC1OC(=O)C(C)C(=O)C(C)C(OC2OC(C)CC(N(C)C)C2O)C(C)(OC(=O)NCC=Cc2ccc(-c3ccccn3)cc2)CC(C)C(=O)C(C)C2CC(=O)OC12C (centres unmarked) [Compound 15]

-- reply
1: 0.5; 2: 1

Please report MIC (μg/mL) B for every entry that follows.
1. CCC1OC(=O)C(C)C(=O)C(C)C(OC2OC(C)CC(N(C)C)C2O)C(C)(OC(=O)NCC=Cc2ccc3cccnc3c2)CC(C)C(=O)C(C)C2CC(=O)OC12C (centres unmarked) [Compound 31]
2. CCC1OC(=O)C(C)C(=O)C(C)C(OC2OC(C)CC(N(C)C)C2O)C(C)(OC(=O)NCC=Cc2ccc(-c3ccccc3)nc2)CC(C)C(=O)C(C)C2CC(=O)OC12C (centres unmarked) [Compound 35]
3. CCC1OC(=O)C(C)C(=O)C(C)C(OC2OC(C)CC(N(C)C)C2O)C(C)(OC(=O)NCC=Cc2cncc(-c3ncccn3)c2)CC(C)C(=O)C(C)C2CC(=O)OC12C (centres unmarked) [Compound 40]

-- reply
[0.25, 0.5, 0.25]
